- ASSAY_NOTES: Plasma pharmacokinetics of halofuginone in male beagle dogs (Example B)
- Type: in vivo
- EXPERIMENTAL_PARAMETERS: male, beagle, dog, in vivo, po, 0.15 mg/kg
Structures can show the parent of a compound that is named as a salt.
RECORDED_ENDPOINT: Tmax (min)

INSERT INTO measurements (compound, quantitative_readout) VALUES
  ('O=C(C[C@@H]1NCCC[C@H]1O)Cn1cnc2cc(Br)c(Cl)cc2c1=O [Halofuginone hydrobromide]', 54);

* * *

- ASSAY_NOTES: Plasma pharmacokinetics of Halofuginone hydrobromide in Beagle dogs (Example C)
- EXPERIMENTAL_PARAMETERS: male, Beagle, dog, in vivo, po, 0.15 mg/kg, Mean Conc. (plasma)
Structures can show the parent of a compound that is named as a salt.
RECORDED_ENDPOINT: concentration at 2 h

INSERT INTO measurements (compound, result) VALUES
  ('O=C(C[C@@H]1NCCC[C@H]1O)Cn1cnc2cc(Br)c(Cl)cc2c1=O [Halofuginone hydrobromide]', '3.68 ng/mL');

Cited source: patent US20150086627A1
